Tested on: MDR1-MDCK cell monolayers
Assay: MDCK-MDR1 permeability assay (BBB penetration potential)
Type: in vitro ADME
Conditions: dog, MDCK-MDR1, 120 min, 5 μM, pH 7.4
Below, each of the compounds is paired with its reported MDCK-MDR1: % Recov A-B value.
Answer format: numeric, % implied, no suffix.

Field: example entries. Status: answers known.
INSERT INTO measurements (compound, unit_spec, measured) VALUES
  ('Cn1ccc(=O)c2cc(O)c(-c3ccc(O[C@H]4C[C@]5(C)CCC[C@@](C)(N5)[C@H]4F)nn3)cc21 (single isomer, unassigned) [132-ENT1]', '%', 90),
  ('Cc1cc(-c2ccc(-c3ccc(O[C@@H]4C[C@H]5CCC[C@H](N5)[C@@H]4F)nn3)c(O)c2)cs1 (single isomer, unassigned)', '%', 25),
  ('Cn1ccc(=O)c2cc(-c3ccc(O[C@@H]4C[C@@]5(C)CCC[C@](C)(N5)[C@@H]4F)nn3)c(O)cc21 (single isomer, unassigned)', '%', 91),
  ('Cc1cncc(-c2ccc(-c3ccc(O[C@H]4C[C@@H]5CCC[C@@H](N5)[C@H]4F)nn3)c(O)c2)n1 (single isomer, unassigned)', '%', 86),
  ('Oc1cc(-c2ccc3nccn3c2)ccc1-c1ccc(O[C@@H]2C[C@H]3CCC[C@H](N3)[C@@H]2F)nn1 (single isomer, unassigned)', '%', 44);

Prompt line: Output measured MDCK-MDR1: % Recov A-B for this item: Cn1cc(-c2cc(O)c(-c3ccc(O[C@H]4C[C@@H]5CCC[C@@H](N5)[C@H]4F)nn3)cc2Cl)cn1 (single isomer, unassigned)
Response line: 28

----------
System: MDR1-MDCK cell monolayers
Assay: MDCK-MDR1 permeability assay (BBB penetration potential)
Format: in vitro ADME
Conditions: dog, MDCK-MDR1, 120 min, 5 μM, pH 7.4
Classify on MDCK-MDR1: % Recov A-B using Low: < 70%; Medium: ≥ 70% and < 90%; High: ≥ 90%

Known results for molecules:
INSERT INTO measurements (molecule, class_assignment) VALUES
  ('Cn1cc(-c2ccc(-c3ccc(O[C@@H]4C[C@H]5CCC[C@H](N5)[C@@H]4F)nn3)c(O)c2)cn1 (single isomer, unassigned) [1-ENT1]', 'Medium'),
  ('Oc1cc(-c2cn[nH]c2)c(F)cc1-c1ccc(O[C@@H]2C[C@H]3CCC[C@H](N3)[C@@H]2F)nn1 (single isomer, unassigned) [56-ENT1]', 'Low'),
  ('Oc1cc(-c2cnccn2)ccc1-c1ccc(O[C@H]2C[C@@H]3CCC[C@@H](N3)[C@H]2F)nn1 (single isomer, unassigned) [79-ENT2]', 'Medium');

Prompt line: Hello team, could you let me know which band the following molecule falls into: Cc1ccc(-c2ccc(-c3ccc(O[C@@H]4C[C@H]5CCC[C@H](N5)[C@@H]4F)nn3)c(O)c2)s1 (single isomer, unassigned) [100-ENT1]
Response line: Low

Prompt line: Class label required: Oc1cc(-c2cc[nH]n2)ccc1-c1ccc(O[C@H]2C[C@@H]3CCC[C@@H](N3)[C@H]2F)nn1 (single isomer, unassigned) [66-ENT2]
Response line: Medium

Prompt line: Hey, which category is Cn1cc(-c2cc(O)c(-c3ccc(O[C@@H]4C[C@H]5CCC[C@H](N5)[C@@H]4F)nn3)cn2)cn1 (single isomer, unassigned) [64-ENT1] in, do you know?
Response line: High

Prompt line: Field: class (MDCK-MDR1: % Recov A-B) — entry: Cn1ccc2cc(-c3ccc(O[C@H]4CC5CCC[C@@H](N5)[C@H]4F)nn3)c(O)cc2c1=O (single isomer, unassigned) [125-ENT1]
Response line: High

Prompt line: State the band of Cn1ccc2cc(-c3ccc(O[C@@H]4C[C@H]5CC[C@H](N5)[C@@H]4F)nn3)c(O)cc2c1=O (single isomer, unassigned) [126-ENT2]
Response line: High
